assay target: ATX (Homo sapiens, UniProt Q13822)
Construct: conditioned serum-free medium (CCM) from MDA-MB-435 cells as the source of ATX; endogenous in cells; host or cells: MDA-MB-435 cells (about 10x concentrated conditioned serum-free medium)
test description: ATX inhibition assay (FS-3 substrate)
Type: biochemical
conditions: preliminary screen; FS-3 hydrolysis at one hour, normalized to vehicle control, mean±S.D.; same values given at 10 μM in Table 5
value type: % Response (%)

compound	value type	unit annotation	result number
O=C(Nc1ccc(Sc2ccc(N=Nc3c(O)c(S(=O)(=O)O)cc4cc(S(=O)(=O)O)ccc34)cc2)cc1)c1ccc(N=Nc2c(O)c(S(=O)(=O)O)cc3cc(S(=O)(=O)O)ccc23)cc1	% Response	%	66
O=C(Nc1cccc(C(=O)Nc2ccc3cc(S(=O)(=O)O)cc(S(=O)(=O)O)c3c2)c1)Nc1cccc(C(=O)Nc2ccc3cc(S(=O)(=O)O)cc(S(=O)(=O)O)c3c2)c1.[Na+]	% Response	%	71
O=C(O)c1ccc(C(=O)NCCCN(CCCCN(CCCNC(=O)c2ccc(C(=O)O)c(O)c2O)C(=O)c2ccc(C(=O)O)c(O)c2O)C(=O)c2ccc(C(=O)O)c(O)c2O)c(O)c1O.[Na+]	% Response	%	24
Cc1cc(N)ccc1N=Nc1ccc(Sc2ccc(N=Nc3c(S(=O)(=O)O)cc4cc(S(=O)(=O)O)c(N=Nc5ccc([N+](=O)[O-])cc5)c(N)c4c3O)cc2)cc1.[Na+]	% Response	%	74
Nc1ccc2cc(S(=O)(=O)O)cc(O)c2c1N=Nc1ccc(NC(=O)Nc2ccc(N=Nc3c(N)ccc4cc(S(=O)(=O)O)cc(O)c34)c(S(=O)(=O)O)c2)cc1S(=O)(=O)O	% Response	%	78
Cc1[nH]n(-c2cc(S(=O)(=O)O)ccc2Cl)c(=O)c1N=Nc1c(NC(=O)c2ccc(N)cc2)ccc2cc(S(=O)(=O)O)ccc12.[Na+]	% Response	%	51
Nc1ccc(N=Nc2ccc(-c3ccc(N=Nc4c(S(=O)(=O)O)cc5cc(S(=O)(=O)O)c(N=Nc6ccc([N+](=O)[O-])cc6)c(N)c5c4O)cc3)cc2)c2cc(S(=O)(=O)O)ccc12.Nc1ccc(N=Nc2ccc(-c3ccc(N=Nc4c(S(=O)(=O)O)cc5cc(S(=O)(=O)O)c(N=Nc6ccc([N+](=O)[O-])cc6)c(N)c5c4O)cc3)cc2)c2ccc(S(=O)(=O)O)cc12	% Response	%	32
Nc1ccc(C(=O)Nc2ccc(NC(=O)Nc3ccc(NC(=O)c4ccc(N)cc4)c(S(=O)(=O)O)c3)cc2S(=O)(=O)O)cc1.[Na+]	% Response	%	88
O=C(N/N=C\c1ccc(O)c(S(=O)(=O)O)c1)N/N=C/c1ccc(O)c(S(=O)(=O)O)c1.[Na+]	% Response	%	94
